target: UniProt P41595; type: functional, cell-based
Sequence (P41595 whole entry): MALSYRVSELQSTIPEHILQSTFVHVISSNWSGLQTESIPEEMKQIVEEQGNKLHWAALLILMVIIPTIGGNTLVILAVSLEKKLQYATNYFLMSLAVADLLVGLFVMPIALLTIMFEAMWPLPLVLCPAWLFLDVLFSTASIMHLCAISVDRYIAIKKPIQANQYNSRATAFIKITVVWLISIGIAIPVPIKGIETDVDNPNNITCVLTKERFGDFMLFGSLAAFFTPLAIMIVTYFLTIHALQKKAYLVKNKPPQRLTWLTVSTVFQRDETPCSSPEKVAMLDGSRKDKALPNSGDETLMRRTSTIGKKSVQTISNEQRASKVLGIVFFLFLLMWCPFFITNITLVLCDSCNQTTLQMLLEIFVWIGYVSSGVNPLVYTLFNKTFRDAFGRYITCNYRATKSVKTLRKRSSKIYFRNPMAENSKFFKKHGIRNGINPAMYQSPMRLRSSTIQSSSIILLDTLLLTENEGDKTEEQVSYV
Consider the following molecules and their measured AC50 readings.

{"molecule": "CNC1=Nc2ccc(Cl)cc2C(c2ccccc2)=[N+]([O-])C1 [CHLORDIAZEPOXIDE]", "AC50": "> 10 µM"}
{"molecule": "Nc1ccc(S(=O)(=O)Nc2nccs2)cc1", "AC50": "> 10 µM"}
{"molecule": "COc1cc(N)c(Cl)cc1C(=O)NC1CCN(Cc2ccccc2)CC1 [CLEBOPRIDE]", "AC50": "> 30 µM"}
{"molecule": "O=C1CN(/N=C/c2ccc(-c3ccc([N+](=O)[O-])cc3)o2)C(O)=N1", "AC50": "> 10 µM"}
{"molecule": "CCC1(c2ccccc2)CCC(=O)NC1=O (stereo not drawn) [GLUTETHIMIDE]", "AC50": "> 10 µM"}
{"molecule": "COc1cc2nc(N3CCN(C(=O)C4CCCO4)CC3)nc(N)c2cc1OC (stereo not drawn)", "AC50": "> 10 µM"}
{"molecule": "CCC(C)C1(CC)C(=O)NC(=O)NC1=O (stereo not drawn)", "AC50": "> 30 µM"}
{"molecule": "CCCCC(=O)O[C@]1(C(=O)CO)[C@@H](C)C[C@H]2[C@@H]3CCC4=CC(=O)C=C[C@]4(C)[C@@]3(F)[C@@H](O)C[C@@]21C [BETAMETHASONE VALERATE]", "AC50": "> 10 µM"}
{"molecule": "CC12CC3CC(C)(C1)CC(N)(C3)C2 [MEMANTINE]", "AC50": "> 10 µM"}
{"molecule": "C[N@+]1(CCF)[C@@H]2CC[C@H]1C[C@@H](OC(=O)C(O)(c1ccccc1)c1ccccc1)C2", "AC50": "> 30 µM"}
{"molecule": "CCCCCC(=O)O[C@]1(C(C)=O)CC[C@H]2[C@@H]3CCC4=CC(=O)CC[C@]4(C)[C@H]3CC[C@@]21C [HYDROXYPROGESTERONE CAPROATE]", "AC50": "> 30 µM"}
{"molecule": "NC(=O)CN1CCCC1=O", "AC50": "> 30 µM"}
{"molecule": "CCOC(=O)C1=C[C@]2(CC)CCCN3CCc4c(n1c1ccccc41)[C@@H]32", "AC50": "13 µM"}
